The reader will find reported AUC (ng/ml h) 0-1 h values listed item by item below.
ASSAY NOTES: Intravenous bioavailability of hydrocodone conjugates in rats, LC/MS/MS
PROTOCOL CONDITIONS: intravenous, 1 mg/kg dose, hydrocodone plus hydromorphone
Where a SMILES comes first, the peptide text is derived from it. The star is where a group is joined. X1 = COc1ccc2c3c1O[C@H]1C(O*)=CC[C@H]4[C@@H](C2)N(C)CC[C@]314
PROPERTY LABEL: AUC (ng/ml h) 0-1 h

| MOLECULE | PROPERTY LABEL | RESULT |
| --- | --- | --- |
| CC[C@H](C)[C@H](NC(=O)[C@H](Cc1ccccc1)NC(=O)[C@H](Cc1ccccc1)NC(=O)[C@H](CCC(=O)O)NC(=O)[C@@H](N)CCC(=O)O)C(=O)OC1=CC[C@H]2[C@H]3Cc4ccc(OC)c5c4[C@@]2(CCN3C)[C@H]1O5 [EEFFI[SEQ ID NO: 5]-HC] (H-EEFFI-X1) | AUC (ng/ml h) 0-1 h | 66 ng·h/mL |
| COc1ccc2c3c1O[C@H]1C(OC(=O)[C@H](Cc4ccccc4)NC(=O)[C@H](Cc4ccccc4)NC(=O)[C@H](Cc4ccccc4)NC(=O)[C@H](CCC(=O)O)NC(=O)[C@@H](N)CCC(=O)O)=CC[C@H]4[C@@H](C2)N(C)CC[C@]314 [EEFFF[SEQ ID NO: 3]-HC] (H-EEFFF-X1) | AUC (ng/ml h) 0-1 h | 107 ng·h/mL |
| CC[C@H](C)[C@H](NC(=O)[C@H](Cc1ccccc1)NC(=O)[C@H](Cc1ccccc1)NC(=O)[C@H](Cc1ccc(O)cc1)NC(=O)[C@@H](N)Cc1ccc(O)cc1)C(=O)OC1=CC[C@H]2[C@H]3Cc4ccc(OC)c5c4[C@@]2(CCN3C)[C@H]1O5 [YYFFI[SEQ ID NO: 8]-HC] (H-YYFFI-X1) | AUC (ng/ml h) 0-1 h | 40 ng·h/mL |
| CC[C@H](C)[C@H](NC(=O)[C@H](Cc1ccc(O)cc1)NC(=O)[C@@H](N)Cc1ccc(O)cc1)C(=O)OC1=CC[C@H]2[C@H]3Cc4ccc(OC)c5c4[C@@]2(CCN3C)[C@H]1O5 [YYI-HC, Tyr-Tyr-Ile-Hydrocodone] | AUC (ng/ml h) 0-1 h | 10 ng·h/mL |

###

ASSAY NOTES: Crossover pharmacokinetics in dogs, oral vs 30-min intravenous infusion, LC-MS/MS
Type: in vivo, male beagle dogs
PROTOCOL CONDITIONS: male, beagle, dog, plasma, po, 1 mg/kg; read-out: Tmax of L-lysine-d-amphetamine (median)

| COMPOUND | Tmax, min |
| --- | --- |
| CC(Cc1ccccc1)NC(=O)C(N)CCCCN (stereo not shown) | 30 |

###

ASSAY NOTES: Oral bioavailability in rats at escalating doses, LC/MS/MS
PROTOCOL CONDITIONS: male, Sprague-Dawley, rat, in vivo, po, 3 mg/kg

| MOLECULE | AUC(0-t) / ng·h/mL |
| --- | --- |
| CC(Cc1ccccc1)NC(=O)C(N)CCCCN [L-lysine-d-amphetamine] | 330 |

###

ASSAY NOTES: Oral bioavailability in rats at escalating doses, LC/MS/MS
PROTOCOL CONDITIONS: male, Sprague-Dawley, rat, in vivo, po, 6 mg/kg

| MOLECULE | Tmax |
| --- | --- |
| CC(Cc1ccccc1)NC(=O)C(N)CCCCN (stereo not shown) | 15 min |
